System: Rattus norvegicus
Experiment: Gastrointestinal toxicity in Rattus norvegicus Wistar albino (rat) assessed as ulcer index at 20 mg/kg, ip administered QD for 3 days measured on day 4 (reference value: 0.15 +/- 0.32)
Assay type: organism-based
Design: dose 20 mg/kg, route intraperitoneal
Conditions: in vivo, 72 h
measured.property: UI

compound: CC(=O)Oc1ccccc1C(=O)O
experimental.value: 1.73
--
compound: O=c1c2ccccc2nc(N/N=C/c2ccccc2[N+](=O)[O-])n1Cc1ccccc1
experimental.value: 0.87
--
compound: O=c1c2ccccc2nc(N/N=C/c2ccc([N+](=O)[O-])cc2)n1Cc1ccccc1
experimental.value: 0.82
--
compound: O=C1Nc2ccccc2/C1=N\Nc1nc2ccccc2c(=O)n1Cc1ccccc1
experimental.value: 0.62
--
compound: O=C([O-])Cc1ccccc1Nc1c(Cl)cccc1Cl.[Na+] [DICLOFENAC SODIUM]
experimental.value: 1.65
--
compound: CCC(CC)=NNc1nc2ccccc2c(=O)n1Cc1ccccc1
experimental.value: 0.5
--
compound: C/C(=N\Nc1nc2ccccc2c(=O)n1Cc1ccccc1)c1ccccc1
experimental.value: 0.6
--
compound: O=c1c2ccccc2nc(NN=C2CCCCC2)n1Cc1ccccc1
experimental.value: 0.59
--
compound: O=c1c2ccccc2nc(N/N=C/c2ccccc2Cl)n1Cc1ccccc1
experimental.value: 0.86
--
compound: Cc1ccccc1/C=N/Nc1nc2ccccc2c(=O)n1Cc1ccccc1
experimental.value: 0.66
--
compound: CCC/C(C)=N/Nc1nc2ccccc2c(=O)n1Cc1ccccc1
experimental.value: 0.48
--
compound: Cc1ccc(/C=N/Nc2nc3ccccc3c(=O)n2Cc2ccccc2)cc1
experimental.value: 0.65
--
compound: O=c1c2ccccc2nc(NN=C(c2ccccc2)c2ccccc2)n1Cc1ccccc1
experimental.value: 0.63
--
compound: CC/C(C)=N/Nc1nc2ccccc2c(=O)n1Cc1ccccc1
experimental.value: 0.53
--
compound: COc1ccc(/C=N/Nc2nc3ccccc3c(=O)n2Cc2ccccc2)cc1
experimental.value: 0.83
--
compound: O=c1c2ccccc2nc(N/N=C/c2ccccc2)n1Cc1ccccc1
experimental.value: 0.64
--
compound: O=c1c2ccccc2nc(N/N=C/c2ccc(Cl)cc2)n1Cc1ccccc1
experimental.value: 0.89

* * *

System: Mus musculus
Assay: Analgesic activity in Mus musculus Wistar albino (mouse) at 10 mg/kg, po after 3 hr by tail-flick test (reference value: 4 +/- 0.91%)
Assay type: functional
measured.property: Activity (%)

compound: O=c1c2ccccc2nc(NN=C(c2ccccc2)c2ccccc2)n1Cc1ccccc1
tgt: Mus musculus
experimental.value: 33

compound: CC/C(C)=N/Nc1nc2ccccc2c(=O)n1Cc1ccccc1
tgt: Mus musculus
experimental.value: 35

compound: CCC(CC)=NNc1nc2ccccc2c(=O)n1Cc1ccccc1
tgt: Mus musculus
experimental.value: 41

compound: O=C1Nc2ccccc2/C1=N\Nc1nc2ccccc2c(=O)n1Cc1ccccc1
tgt: Mus musculus
experimental.value: 30

compound: Cc1ccccc1/C=N/Nc1nc2ccccc2c(=O)n1Cc1ccccc1
tgt: Mus musculus
experimental.value: 32

compound: O=C([O-])Cc1ccccc1Nc1c(Cl)cccc1Cl.[Na+] [DICLOFENAC SODIUM]
tgt: Mus musculus
experimental.value: 33

compound: COc1ccc(/C=N/Nc2nc3ccccc3c(=O)n2Cc2ccccc2)cc1
tgt: Mus musculus
experimental.value: 32

compound: C/C(=N\Nc1nc2ccccc2c(=O)n1Cc1ccccc1)c1ccccc1
tgt: Mus musculus
experimental.value: 30

compound: O=c1c2ccccc2nc(N/N=C/c2ccc(Cl)cc2)n1Cc1ccccc1
tgt: Mus musculus
experimental.value: 30

compound: O=c1c2ccccc2nc(NN=C2CCCCC2)n1Cc1ccccc1
tgt: Mus musculus
experimental.value: 34

compound: O=c1c2ccccc2nc(N/N=C/c2ccccc2[N+](=O)[O-])n1Cc1ccccc1
tgt: Mus musculus
experimental.value: 32

compound: O=c1c2ccccc2nc(N/N=C/c2ccccc2)n1Cc1ccccc1
tgt: Mus musculus
experimental.value: 31

compound: Cc1ccc(/C=N/Nc2nc3ccccc3c(=O)n2Cc2ccccc2)cc1
tgt: Mus musculus
experimental.value: 35

compound: O=c1c2ccccc2nc(N/N=C/c2ccccc2Cl)n1Cc1ccccc1
tgt: Mus musculus
experimental.value: 29

compound: O=c1c2ccccc2nc(N/N=C/c2ccc([N+](=O)[O-])cc2)n1Cc1ccccc1
tgt: Mus musculus
experimental.value: 34

compound: CCC/C(C)=N/Nc1nc2ccccc2c(=O)n1Cc1ccccc1
tgt: Mus musculus
experimental.value: 40

* * *

Tested on: Rattus norvegicus
Experiment: Anti-inflammatory activity in Rattus norvegicus (rat) assessed as inhibition of carrageenan-induced paw edema at 20 mg/kg, po measured at 2 hr post carrageenan-challenge (reference value: 5.7+/- 0.32%)
Format: functional
measured.property: inhibition in vivo at 20 mg/kg (%)

compound: O=c1c2ccccc2nc(N/N=C/c2ccc(Cl)cc2)n1Cc1ccccc1
measured.property: inhibition in vivo at 20 mg/kg
result.units: %
experimental.value: 49
//
compound: O=c1c2ccccc2nc(N/N=C/c2ccccc2Cl)n1Cc1ccccc1
measured.property: inhibition in vivo at 20 mg/kg
result.units: %
experimental.value: 42
//
compound: CCN(CC)C(=S)Nn1c(SC)nc2ccccc2c1=O
measured.property: inhibition in vivo at 20 mg/kg
result.units: %
experimental.value: 62
//
compound: O=C([O-])Cc1ccccc1Nc1c(Cl)cccc1Cl.[Na+] [DICLOFENAC SODIUM]
measured.property: inhibition in vivo at 20 mg/kg
result.units: %
experimental.value: 60
//
compound: O=C1Nc2ccccc2/C1=N\Nc1nc2ccccc2c(=O)n1Cc1ccccc1
measured.property: inhibition in vivo at 20 mg/kg
result.units: %
experimental.value: 51
//
compound: Cc1ccc(/C=N/Nc2nc3ccccc3c(=O)n2Cc2ccccc2)cc1
measured.property: inhibition in vivo at 20 mg/kg
result.units: %
experimental.value: 53
//
compound: COc1ccc(/C=N/Nc2nc3ccccc3c(=O)n2Cc2ccccc2)cc1
measured.property: inhibition in vivo at 20 mg/kg
result.units: %
experimental.value: 44
//
compound: C/C(=N\Nc1nc2ccccc2c(=O)n1Cc1ccccc1)c1ccccc1
measured.property: inhibition in vivo at 20 mg/kg
result.units: %
experimental.value: 58

* * *

The reader will find reported inhibition in vivo at 20 mg/kg values listed item by item below.
Test system: Rattus norvegicus
Test: Anti-inflammatory activity in Rattus norvegicus (rat) assessed as inhibition of carrageenan-induced paw edema at 20 mg/kg, po measured at 2 hr post carrageenan-challenge (reference value: 5.7+/- 0.32%)
Assay type: functional

mol: Cc1ccccc1/C=N/Nc1nc2ccccc2c(=O)n1Cc1ccccc1
result.units: %
inhibition in vivo at 20 mg/kg: 51
//
mol: CCN(CC)C(=S)Nn1c(-c2ccccc2)nc2ccccc2c1=O
result.units: %
inhibition in vivo at 20 mg/kg: 53
//
mol: O=c1c2ccccc2nc(N/N=C/c2ccccc2[N+](=O)[O-])n1Cc1ccccc1
result.units: %
inhibition in vivo at 20 mg/kg: 47
//
mol: CCC(CC)=NNc1nc2ccccc2c(=O)n1Cc1ccccc1
result.units: %
inhibition in vivo at 20 mg/kg: 70
//
mol: Cc1nc2ccccc2c(=O)n1NC(=S)n1cccc1
result.units: %
inhibition in vivo at 20 mg/kg: 60
//
mol: CCC/C(C)=N/Nc1nc2ccccc2c(=O)n1Cc1ccccc1
result.units: %
inhibition in vivo at 20 mg/kg: 67
//
mol: O=c1c2ccccc2nc(N/N=C/c2ccccc2)n1Cc1ccccc1
result.units: %
inhibition in vivo at 20 mg/kg: 47
//
mol: CC/C(C)=N/Nc1nc2ccccc2c(=O)n1Cc1ccccc1
result.units: %
inhibition in vivo at 20 mg/kg: 60
//
mol: O=c1c2ccccc2nc(N/N=C/c2ccc([N+](=O)[O-])cc2)n1Cc1ccccc1
result.units: %
inhibition in vivo at 20 mg/kg: 49
//
mol: O=c1c2ccccc2nc(NN=C(c2ccccc2)c2ccccc2)n1Cc1ccccc1
result.units: %
inhibition in vivo at 20 mg/kg: 52
//
mol: O=c1c2ccccc2nc(NN=C2CCCCC2)n1Cc1ccccc1
result.units: %
inhibition in vivo at 20 mg/kg: 58

* * *

Tested on: Mus musculus
Assay: Analgesic activity in Mus musculus Wistar albino (mouse) at 20 mg/kg, po after 1 hr by tail-flick test (reference value: 6 +/- 0.49%)
Type: functional
Lab note: compare Activity against 60%. Equal or greater, write Satisfied. Smaller, write Not satisfied.

compound: Cc1ccccc1/C=N/Nc1nc2ccccc2c(=O)n1Cc1ccccc1
qualitative.label: Not satisfied
--
compound: O=c1c2ccccc2nc(N/N=C/c2ccc(Cl)cc2)n1Cc1ccccc1
qualitative.label: Not satisfied
--
compound: O=c1c2ccccc2nc(NN=C2CCCCC2)n1Cc1ccccc1
qualitative.label: Not satisfied
--
compound: CCC(CC)=NNc1nc2ccccc2c(=O)n1Cc1ccccc1
qualitative.label: Satisfied
--
compound: CCC/C(C)=N/Nc1nc2ccccc2c(=O)n1Cc1ccccc1
qualitative.label: Satisfied
--
compound: O=c1c2ccccc2nc(N/N=C/c2ccccc2Cl)n1Cc1ccccc1
qualitative.label: Not satisfied
--
compound: COc1ccc(/C=N/Nc2nc3ccccc3c(=O)n2Cc2ccccc2)cc1
qualitative.label: Not satisfied
--
compound: O=c1c2ccccc2nc(N/N=C/c2ccc([N+](=O)[O-])cc2)n1Cc1ccccc1
qualitative.label: Not satisfied
--
compound: O=C([O-])Cc1ccccc1Nc1c(Cl)cccc1Cl.[Na+] [DICLOFENAC SODIUM]
qualitative.label: Not satisfied
--
compound: C/C(=N\Nc1nc2ccccc2c(=O)n1Cc1ccccc1)c1ccccc1
qualitative.label: Satisfied
--
compound: CC/C(C)=N/Nc1nc2ccccc2c(=O)n1Cc1ccccc1
qualitative.label: Satisfied
--
compound: O=c1c2ccccc2nc(N/N=C/c2ccccc2[N+](=O)[O-])n1Cc1ccccc1
qualitative.label: Not satisfied
--
compound: O=c1c2ccccc2nc(NN=C(c2ccccc2)c2ccccc2)n1Cc1ccccc1
qualitative.label: Not satisfied
--
compound: O=C1Nc2ccccc2/C1=N\Nc1nc2ccccc2c(=O)n1Cc1ccccc1
qualitative.label: Not satisfied

src = ChEMBL document CHEMBL3046395
